Values from patent US10329324B2

IC50 values for the molecules below.
Molecular target: human Granzyme B (hGzmB) (Homo sapiens, UniProt P10144)
Construct: purchased Froelich Lab, Northshore University Health Systems Research Institute, Evanston, Ill., USA
Sequence (P10144 21-247): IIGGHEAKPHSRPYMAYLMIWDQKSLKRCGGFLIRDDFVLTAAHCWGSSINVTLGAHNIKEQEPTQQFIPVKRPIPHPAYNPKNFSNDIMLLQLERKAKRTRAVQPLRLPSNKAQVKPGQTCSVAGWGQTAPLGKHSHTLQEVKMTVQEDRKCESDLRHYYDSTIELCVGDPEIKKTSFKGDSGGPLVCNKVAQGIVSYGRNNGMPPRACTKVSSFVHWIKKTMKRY
Experiment: Human Granzyme B enzymatic inhibition assay (fluorogenic, kinetic)
Format: biochemical
Conditions: activity codes, Table 7; read-out: IC50 Activity Range
Structures can show the parent of a compound that is named as a salt.

// known answers, use as guide
INSERT INTO measurements (molecule, reading) VALUES
  ('CC[C@H](C)[C@H](NC(=O)Cc1ccccc1)C(=O)NCC(=O)N1c2ccc([N+](C)(C)C)cc2C[C@H]1C(=O)NCc1nn[nH]n1', '> 10000 nM'),
  ('CC[C@H](C)[C@H](NC(=O)Cc1ccccc1)C(=O)NCC(=O)N1c2ccc(N)cc2C[C@H]1C(=O)NCc1nn[nH]n1 [Example C32, Hydrochloride]', '100 to 1000 nM'),
  ('CC[C@H](C)[C@H](NC(=O)C1=C(C(=O)O)CCCC1)C(=O)NCC(=O)N1c2ccccc2C[C@H]1C(=O)NCc1nn[nH]n1', '< 100 nM'),
  ('CC[C@H](C)[C@H](NC(=O)CCC(C)(C)C(=O)O)C(=O)NCC(=O)N1c2ccccc2C[C@H]1C(=O)NCc1nn[nH]n1', '< 100 nM'),
  ('CC[C@H](C)[C@H](NC(=O)CC(C)CC(=O)O)C(=O)NCC(=O)N1c2ccccc2C[C@H]1C(=O)NCc1nn[nH]n1 (stereo partly shown) [Example A17]', '< 100 nM'),
  ('CC[C@H](C)[C@H](NC(=O)Cc1nn[nH]n1)C(=O)NCC(=O)N1c2ccccc2C[C@H]1C(=O)NCc1c[nH]nn1', '< 100 nM'),
  ('CC[C@H](C)[C@H](NC(=O)CCN)C(=O)NCC(=O)N1c2ccccc2C[C@H]1C(=O)NCc1nn[nH]n1', '1000 to 10000 nM'),
  ('CC[C@H](C)[C@H](NC(=O)C(CCC(=O)O)c1ccccc1)C(=O)NCC(=O)N1c2ccccc2C[C@H]1C(=O)NCc1nn[nH]n1 (single isomer, unassigned) [Example A54-1]', '< 100 nM'),
  ('CC[C@H](C)[C@H](NC(=O)[C@H](C)c1ccccc1)C(=O)NCC(=O)N1c2ccccc2C[C@H]1C(=O)NCc1nn[nH]n1', '100 to 1000 nM'),
  ('CC(C)(C)[C@H](NC(=O)Cc1ccccc1)C(=O)NCC(=O)N1c2ccccc2C[C@H]1C(=O)NCc1nn[nH]n1', '1000 to 10000 nM');

Supply reported IC50 belonging to this molecule: `CC[C@H](C)[C@H](NC(=O)Cc1ccccc1)C(=O)NCC(=O)N1c2ccccc2C[C@H]1C(=O)NCc1nn[nH]n1`
100 to 1000 nM

Answer with the recorded IC50 of `CC[C@H](C)[C@H](NC(=O)[C@H](C)CC(=O)OC)C(=O)NCC(=O)N1c2ccccc2C[C@H]1C(=O)NCc1nn[nH]n1` only.
100 to 1000 nM

Give the value of IC50 reported for the following: `CC[C@H](C)[C@H](NC(=O)[C@H](O)[C@@H](O)C(=O)O)C(=O)NCC(=O)N1c2ccccc2C[C@H]1C(=O)NCc1nn[nH]n1`
< 100 nM
